TGT: ATP-binding cassette sub-family C member 2 (Rattus norvegicus)
TEST: TP_TRANSPORTER: inhibition of DNP-SG uptake in bile canalicular membrane vesicles from SD rat
Type: functional, cell membranes, Sprague-Dawley, Bile canalicular membrane vesicle
REPORTED_PROPERTY: Ki (µM)
Quick reminder: number only, in µM, skip the unit.

// Ki value for CREMOPHOR EL : 281

###

TGT: ATP-binding cassette sub-family C member 2 (Rattus norvegicus, UniProt Q63120)
Sequence (Q63120 whole entry): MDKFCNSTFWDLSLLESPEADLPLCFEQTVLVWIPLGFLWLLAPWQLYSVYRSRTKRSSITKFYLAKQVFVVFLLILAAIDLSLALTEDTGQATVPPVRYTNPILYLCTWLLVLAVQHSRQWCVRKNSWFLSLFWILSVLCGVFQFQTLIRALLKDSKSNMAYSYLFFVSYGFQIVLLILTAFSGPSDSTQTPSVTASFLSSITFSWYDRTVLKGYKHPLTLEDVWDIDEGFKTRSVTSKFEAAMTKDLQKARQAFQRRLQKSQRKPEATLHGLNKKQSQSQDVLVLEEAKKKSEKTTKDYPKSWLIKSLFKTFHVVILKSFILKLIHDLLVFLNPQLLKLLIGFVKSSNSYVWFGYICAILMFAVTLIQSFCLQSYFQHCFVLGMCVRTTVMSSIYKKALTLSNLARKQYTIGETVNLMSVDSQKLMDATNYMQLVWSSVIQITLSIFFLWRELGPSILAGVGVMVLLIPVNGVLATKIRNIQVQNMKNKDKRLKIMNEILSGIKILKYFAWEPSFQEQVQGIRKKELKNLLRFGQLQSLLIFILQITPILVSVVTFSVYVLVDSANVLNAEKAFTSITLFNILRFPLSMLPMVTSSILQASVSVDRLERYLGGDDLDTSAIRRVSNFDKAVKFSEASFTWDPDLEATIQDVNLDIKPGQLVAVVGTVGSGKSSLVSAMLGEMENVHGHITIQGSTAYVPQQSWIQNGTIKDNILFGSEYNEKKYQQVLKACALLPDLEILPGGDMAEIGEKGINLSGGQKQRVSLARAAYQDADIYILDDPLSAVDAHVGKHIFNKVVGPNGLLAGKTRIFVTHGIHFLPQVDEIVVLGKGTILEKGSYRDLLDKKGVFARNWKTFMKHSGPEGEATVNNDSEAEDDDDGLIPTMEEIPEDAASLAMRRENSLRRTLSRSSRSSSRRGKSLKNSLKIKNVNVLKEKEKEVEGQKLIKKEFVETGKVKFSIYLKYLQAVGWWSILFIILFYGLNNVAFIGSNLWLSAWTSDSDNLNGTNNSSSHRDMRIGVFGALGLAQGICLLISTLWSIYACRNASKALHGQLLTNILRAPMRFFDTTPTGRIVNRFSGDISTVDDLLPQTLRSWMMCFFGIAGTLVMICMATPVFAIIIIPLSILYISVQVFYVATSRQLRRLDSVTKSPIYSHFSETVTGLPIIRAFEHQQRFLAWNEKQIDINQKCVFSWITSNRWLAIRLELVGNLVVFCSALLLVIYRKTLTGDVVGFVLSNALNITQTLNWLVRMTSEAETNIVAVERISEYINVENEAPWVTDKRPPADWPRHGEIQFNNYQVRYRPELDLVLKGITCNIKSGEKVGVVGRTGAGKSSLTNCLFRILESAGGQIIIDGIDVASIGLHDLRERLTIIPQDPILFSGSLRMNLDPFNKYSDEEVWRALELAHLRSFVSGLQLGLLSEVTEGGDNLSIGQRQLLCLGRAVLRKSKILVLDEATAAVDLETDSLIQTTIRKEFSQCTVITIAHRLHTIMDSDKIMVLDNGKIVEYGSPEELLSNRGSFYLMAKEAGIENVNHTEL
TEST: TP_TRANSPORTER: inhibition of DNP-SG uptake in bile canalicular membrane vesicles from SD rat
Format: functional, cell membranes, Sprague-Dawley, Bile canalicular membrane vesicle
Friendly reminder: Ki below 2000 nM is Satisfied, at or above is Not satisfied.

COMPOUND: O=C1OC(c2ccc(O)c(S(=O)(=O)O)c2)(c2ccc(O)c(S(=O)(=O)O)c2)c2c(Br)c(Br)c(Br)c(Br)c21 [SULFOBROMOPHTHALEIN SODIUM]
TGT: ATP-binding cassette sub-family C member 2 (Rattus norvegicus, UniProt Q63120)
CLASS_NAME: Not satisfied

q: Consider the compound Nc1nc2c(c(=O)[nH]1)N(C=O)C(CNc1ccc(C(=O)N[C@@H](CCC(=O)O)C(=O)O)cc1)CN2 (stereo not given in full) [LEUCOVORIN] . Is its Ki strictly less than 2000 nM?
a: Not satisfied

q: Consider the compound CC1(C)C(/C=C/C=C/C=C/C=C2\N(CCCCS(=O)(=O)O)c3ccc4ccccc4c3C2(C)C)=[N+](CCCCS(=O)(=O)[O-])c2ccc3ccccc3c21 [INDOCYANINE GREEN] . Is its Ki strictly less than 2000 nM?
a: Satisfied

q: Consider the compound CC1(C)[C@@H](O[C@H]2O[C@H](C(=O)O)[C@@H](O)[C@H](O)[C@H]2O[C@@H]2O[C@H](C(=O)O)[C@@H](O)[C@H](O)[C@H]2O)CC[C@]2(C)[C@H]3C(=O)C=C4[C@@H]5C[C@@](C)(C(=O)O)CC[C@]5(C)CC[C@@]4(C)[C@]3(C)CC[C@@H]12 [GLYCYRRHIZIN] . Is its Ki strictly less than 2000 nM?
a: Satisfied

q: Consider the compound CO/N=C(\C(=O)N[C@@H]1C(=O)N2C(C(=O)O)=C(CSc3nc(C)c(CC(=O)O)s3)CS[C@H]12)c1csc(N)n1 [CEFODIZIME] . Is its Ki strictly less than 2000 nM?
a: Not satisfied

###

TGT: ATP-binding cassette sub-family C member 2 (Rattus norvegicus)
TEST: TP_TRANSPORTER: inhibition of SN-38 uptake in bile canalicular membrane vesicles
REPORTED_PROPERTY: Ki
Don't forget the unit after the value.

Observed Ki on ATP-binding cassette sub-family C member 2 (Rattus norvegicus), entry CCCN(CCC)S(=O)(=O)c1ccc(C(=O)O)cc1 , equals 42.2 µM

###

TGT: ATP-binding cassette sub-family C member 2 (Rattus norvegicus, UniProt Q63120)
TEST: TP_TRANSPORTER: inhibition of DNP-SG uptake in bile canalicular membrane vesicles from SD rat
Type: functional, cell membranes, Sprague-Dawley, Bile canalicular membrane vesicle
REPORTED_PROPERTY: pKi
Reminder that pKi means the negative base-10 logarithm of the concentration expressed in mol/L.

CHEMICAL_SMILES: N[C@@H](CCC(=O)N[C@@H](CSc1c(Br)c(Br)c2c(c1Br)C(=O)OC2(c1ccc(O)c(S(=O)(=O)O)c1)c1ccc(O)c(S(=O)(=O)O)c1)C(=O)NCC(=O)O)C(=O)O
pKi: 7.34

// pKi value for O=C(O)[C@H]1O[C@@H](Oc2cc3oc(-c4ccccc4)cc(=O)c3c(O)c2O)[C@H](O)[C@@H](O)[C@@H]1O : 5.10

// pKi value for O=C(Nc1cccc2c(=O)cc(-c3nnn[nH]3)oc12)c1ccc(OCCCCc2ccccc2)cc1 : 4.39
